# EXPERIMENTAL SYSTEM: Delta-type opioid receptor (Homo sapiens, UniProt P41143)
# Sequence (P41143 whole entry): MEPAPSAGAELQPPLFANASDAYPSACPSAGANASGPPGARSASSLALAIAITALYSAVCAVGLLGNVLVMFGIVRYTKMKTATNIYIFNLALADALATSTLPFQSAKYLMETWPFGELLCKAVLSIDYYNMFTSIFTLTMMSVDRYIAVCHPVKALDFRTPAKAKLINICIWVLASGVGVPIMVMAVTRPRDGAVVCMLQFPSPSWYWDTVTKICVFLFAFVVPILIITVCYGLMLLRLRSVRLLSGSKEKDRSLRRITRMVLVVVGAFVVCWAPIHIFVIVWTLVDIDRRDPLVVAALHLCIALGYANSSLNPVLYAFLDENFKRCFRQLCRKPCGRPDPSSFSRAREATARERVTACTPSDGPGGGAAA
# ASSAY NAME: Antagonist activity at DOR (unknown origin) by [35S]GTPgammaS assay
pIC50: −log10 of the molar value.
PROPERTY: pIC50

Entry O=C(Nc1cccc(NC(=O)c2cccc(N3CCCCC3)c2)c1)c1cccc(OC2CCN(CC3CC3)CC2)c1 ; pIC50 = < 4.52

----------
Where a SMILES comes first, the peptide text is derived from it. [ ]: non-standard residue; d: D form.
Dear all, this message contains Ki results, target or system Kappa-type opioid receptor (Rattus norvegicus, UniProt P34975).
The figure you give is taken to be in nM; do not add the unit.

1) O=C1N[C@H](Cc2c[nH]c3ccccc23)C(=O)N[C@@H](Cc2ccccc2)C(=O)N2CCC[C@@H]2C(=O)N[C@H]1Cc1ccccc1 (cyclo(F[dP]F[dW])) | 30.6

We now examine a further compound.
Entry O=C1N[C@@H](Cc2ccccc2)C(=O)N2CCC[C@@H]2C(=O)N[C@@H](Cc2ccccc2)C(=O)N[C@H]1Cc1c[nH]c2ccccc12 (cyclo(FWF[dP])) ; Ki = 35.4
